Origin of measurements: paper PMC7579906

Below is a list of entries, each paired with its recorded IC50 value.
Tested on: U87MG cells
Assay: Cell proliferation (MTT) assay, parental U87MG
Type: cell-based
Settings: Homo sapiens, U-87 MG, inhibition of cell proliferation/viability
Please give a number only; it is taken to be in µM.

Use the examples below as a reference point.
>>> assay_value("Cc1ccc(-c2csc(NC(=O)c3cccc4ccccc34)n2)c(C)c1 [Compound 24]")
24.5
>>> assay_value("O=C(Nc1ncc([N+](=O)[O-])s1)c1ccccc1O [TIZ, tizoxanide, reference compound]")
82.9
>>> assay_value("Cc1ccc(C(=O)Nc2nc(-c3ccccc3)c(C)s2)cc1 [Compound 22]")
11.2
>>> assay_value("Cc1ccc(C)c(-c2csc(NC(=O)c3ccc(-c4ccccc4)cc3)n2)c1 [Compound 21]")
16.6
>>> assay_value("CC(=O)Oc1ccccc1C(=O)Nc1ncc([N+](=O)[O-])s1 [NTZ, nitazoxanide, reference compound]")
66.7

Lab note: next compound to report on.
q: What measured IC50 goes with CCc1cc(C(=O)Nc2nc(-c3ccc(C)c(C)c3)c(C)s2)cs1 [Compound 23] ?
a: 29.1

----------
Biological target: GSTP1 WT (Homo sapiens, UniProt P09211, I105V)
Construct: hexahistidine tag followed by a thrombin site (N); made in house; host or cells: Escherichia coli BL21 (DE3)
Sequence (P09211 whole entry I105V): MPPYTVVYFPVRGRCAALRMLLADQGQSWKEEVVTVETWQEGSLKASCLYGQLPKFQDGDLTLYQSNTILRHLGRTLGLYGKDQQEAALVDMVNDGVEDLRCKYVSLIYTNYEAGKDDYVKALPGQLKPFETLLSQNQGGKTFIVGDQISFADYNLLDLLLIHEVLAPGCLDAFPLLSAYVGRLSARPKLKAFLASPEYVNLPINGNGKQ
Assay: Microscale thermophoresis (MST), GSTP1 wild type
Assay type: binding
Conditions: mean ± SEM, three experiments
property-measured: Kd (µM)
Please give a number only; it is taken to be in µM.

q: Record lookup: for GSTP1 WT (Homo sapiens, UniProt P09211, I105V), what Kd belongs to Cc1onc(-c2ccccc2)c1C(=O)Nc1ncc([N+](=O)[O-])s1 [MNPC] ?
a: 17.6

----------
Target: wild-type GSTP1 (Homo sapiens, UniProt P09211, I105V)
Construct: hexahistidine tag followed by a thrombin site (N); made in house; host or cells: Escherichia coli BL21 (DE3)
Sequence (P09211 whole entry I105V): as the sequence (P09211 whole entry I105V) above
Assay: GSTP1 kinetic assay (GSH/CDNB conjugation), wild type
Assay type: biochemical
Conditions: Supplementary Table 1, mean ± SEM (n=3), 30 min pre-incubation; read-out: IC50 (μM), GSTP1 WT
property-measured: IC50 (µM)
Please give a number only; it is taken to be in µM.

q: What measured IC50 goes with "Cc1onc(-c2ccccc2)c1C(=O)Nc1ncc([N+](=O)[O-])s1" ?
a: 0.4

----------
Target: GSTP1 V104A (Homo sapiens, UniProt P09211, I105A)
Construct: hexahistidine tag followed by a thrombin site (N); made in house; host or cells: Escherichia coli BL21 (DE3)
Sequence (P09211 2-210 I105A): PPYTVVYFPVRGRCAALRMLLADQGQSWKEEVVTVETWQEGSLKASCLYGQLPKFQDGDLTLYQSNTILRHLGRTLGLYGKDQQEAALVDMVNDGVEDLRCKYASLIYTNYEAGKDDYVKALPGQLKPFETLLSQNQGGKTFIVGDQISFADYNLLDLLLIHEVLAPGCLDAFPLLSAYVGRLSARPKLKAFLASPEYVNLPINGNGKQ
Experiment: Microscale thermophoresis (MST), V104A
Assay type: binding
Conditions: mean ± SEM, three experiments
property-measured: Kd (µM)
Please give a number only; it is taken to be in µM.

q: Record lookup: for GSTP1 V104A (Homo sapiens, UniProt P09211, I105A), what Kd belongs to "Cc1onc(-c2ccccc2)c1C(=O)Nc1ncc([N+](=O)[O-])s1" ?
a: 24.4

----------
Biological target: GSTP1 F8A/Y108A (Homo sapiens, UniProt P09211, F9A/I105V/Y109A)
Construct: hexahistidine tag followed by a thrombin site (N); made in house; host or cells: Escherichia coli BL21 (DE3)
Sequence (P09211 whole entry F9A/I105V/Y109A): as the sequence (P09211 whole entry I105V) above, with F9A, Y109A counted along it
Assay: GSTP1 kinetic assay, F8A/Y108A mutant
Assay type: biochemical
Conditions: mean ± SEM (n=3)
property-measured: IC50 (µM)
Please give a number only; it is taken to be in µM.

q: What measured IC50 goes with "Cc1onc(-c2ccccc2)c1C(=O)Nc1ncc([N+](=O)[O-])s1" ?
a: 4.01
